Parameter: pIC50. Scope: all listed entries.
target: EGFR (L858R T790M C797S) (Homo sapiens, UniProt P00533, C797S/L858R/T790M); test: Biochemical EGFR inhibition assay (Caliper mobility shift), EGFR LRTMCS mutant; conditions: inhibitory activity against EGFR LRTMCS mutant; apparent IC50; read-out: Ext Enz LRTMCS
Sequence (P00533 25-1210 T790M/C797S/L858R): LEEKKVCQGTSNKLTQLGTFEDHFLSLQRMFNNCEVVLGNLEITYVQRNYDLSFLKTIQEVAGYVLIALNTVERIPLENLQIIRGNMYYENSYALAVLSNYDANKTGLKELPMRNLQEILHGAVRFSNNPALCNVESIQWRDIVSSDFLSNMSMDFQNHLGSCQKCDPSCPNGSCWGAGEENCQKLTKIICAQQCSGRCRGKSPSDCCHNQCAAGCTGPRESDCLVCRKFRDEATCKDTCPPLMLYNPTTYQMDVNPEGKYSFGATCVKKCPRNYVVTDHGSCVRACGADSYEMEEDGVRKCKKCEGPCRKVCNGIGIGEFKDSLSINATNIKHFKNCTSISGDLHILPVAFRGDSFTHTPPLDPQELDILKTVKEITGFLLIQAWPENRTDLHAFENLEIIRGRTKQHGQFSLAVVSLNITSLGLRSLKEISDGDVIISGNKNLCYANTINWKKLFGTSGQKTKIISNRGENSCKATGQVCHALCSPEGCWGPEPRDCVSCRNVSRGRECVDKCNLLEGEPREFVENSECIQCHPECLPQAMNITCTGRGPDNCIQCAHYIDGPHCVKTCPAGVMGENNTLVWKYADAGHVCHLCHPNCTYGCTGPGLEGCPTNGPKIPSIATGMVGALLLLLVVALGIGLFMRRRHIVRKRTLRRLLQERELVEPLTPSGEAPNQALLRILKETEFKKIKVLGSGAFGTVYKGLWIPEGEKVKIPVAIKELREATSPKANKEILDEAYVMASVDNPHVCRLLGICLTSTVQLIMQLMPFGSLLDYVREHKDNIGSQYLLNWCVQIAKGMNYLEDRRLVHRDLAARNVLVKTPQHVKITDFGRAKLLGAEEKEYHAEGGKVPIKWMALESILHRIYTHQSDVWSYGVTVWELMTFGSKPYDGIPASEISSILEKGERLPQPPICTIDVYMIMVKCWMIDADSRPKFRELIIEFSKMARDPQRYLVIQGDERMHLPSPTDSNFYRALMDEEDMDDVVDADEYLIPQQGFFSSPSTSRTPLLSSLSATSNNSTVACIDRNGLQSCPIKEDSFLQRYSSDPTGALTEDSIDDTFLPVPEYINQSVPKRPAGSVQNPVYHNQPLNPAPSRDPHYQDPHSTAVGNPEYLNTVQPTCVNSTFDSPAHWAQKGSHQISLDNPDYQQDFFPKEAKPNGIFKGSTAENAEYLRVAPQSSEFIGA
pIC50: −log10 of the molar value.

Past entries and their recorded results:
CC(C)c1ccc(N2C[C@@H](CS(C)(=O)=O)[C@H]2C)c2cnc(Nc3ccnc(N4CC[C@](C)(O)[C@H](F)C4)n3)cc12 (single isomer, unassigned) [Compound 121] ... 7.70 to 7.82
CCS(=O)(=O)CC1CN(c2ccc(C(C)C)c3cc(Nc4ccnc(N5CC[C@@H](OCCO)[C@@H](F)C5)n4)ncc23)C1 [Compound 292] ... ≥ 7.82

[in] Let me know recorded pIC50 for CCS(=O)(=O)C[C@H]1CN(c2ccc(C(C)C)c3cc(Nc4ccnc(N5CC[C@@H](OC)[C@@H](O)C5)n4)ncc23)[C@@H]1C (single isomer, unassigned) [Compound 176] , thanks.
[out] ≥ 7.82

[in] Let me know recorded pIC50 for CC(C)c1ccc(N2CC(CS(C)(=O)=O)C2)c2cnc(Nc3ccnc(N4CC[C@](C)(O)C[C@@H]4C)n3)cc12 (single isomer, unassigned) [Compound 45] , thanks.
[out] ≥ 7.82

[in] Let me know recorded pIC50 for CO[C@H]1CCN(c2nccc(Nc3cc4c([C@@H](C)CO)cnc(N5C[C@H](CS(C)(=O)=O)[C@H]5C)c4cn3)n2)C[C@H]1F (single isomer, unassigned) [Compound 208] , thanks.
[out] ≥ 7.82

----------
biological target: EGFR (L858R T790M C797S) (Homo sapiens, UniProt P00533, C797S/L858R/T790M); assay: Biochemical EGFR inhibition assay (Caliper mobility shift), EGFR LRTMCS mutant; details: inhibitory activity against EGFR LRTMCS mutant; apparent IC50; read-out: Ext Enz LRTMCS
property: IC50

CC(C)c1ccc(N2CC(C)(CS(C)(=O)=O)C2)c2cnc(Nc3ccnc(N4CC[C@@H](O)[C@@](C)(F)C4)n3)cc12 (single isomer, unassigned) [Compound 112] ... ≤ 0.015 µM

[in] Let me know recorded IC50 for CC(C)c1ccc(N2CC(CS(C)(=O)=O)C2)c2cnc(Nc3ccnc(N4CC[C@](C)(O)C(F)(F)C4)n3)cc12 (single isomer, unassigned) [Compound 153] , thanks.
[out] ≤ 0.015 µM

[in] Let me know recorded IC50 for CO[C@@H]1CCN(c2nccc(Nc3cc4c(C(C)C)ccc(N5CC(CS(C)(=O)=O)C5)c4cn3)n2)CC1(F)F (single isomer, unassigned) [Compound 159] , thanks.
[out] 0.0151 to 0.02 µM

[in] Let me know recorded IC50 for CNCCO[C@@H]1CCN(c2nccc(Nc3cc4c(C(C)C)ccc(N5C[C@H](CS(C)(=O)=O)[C@H]5C)c4cn3)n2)CC1(F)F (single isomer, unassigned) [Compound 301] , thanks.
[out] ≤ 0.015 µM

[in] Let me know recorded IC50 for CNCCO[C@@H]1CCN(c2nccc(Nc3cc4c(C(C)C)ccc(N5C[C@H](CS(C)(=O)=O)[C@H]5C)c4cn3)n2)CC1(F)F (single isomer, unassigned) [Compound 300] , thanks.
[out] ≤ 0.015 µM

From: patent US12172983B2
